Target: HLA-A*02:01
Assay: IEDB peptide-MHC binding, purified MHC/competitive/fluorescence; filed as Kd, often an IC50 or EC50 that approximates it; bounds were set here for any values at or beyond the usual limits of such assays
Conditions: source organism: Hepacivirus hominis
quantity: Kd

# get_value(readout='Kd', item= ILDSFDPLV ) 0.6 nM

====

Biological target: HLA-C*15:02
Assay: IEDB peptide-MHC binding, purified MHC/direct/fluorescence; filed as Kd, often an IC50 or EC50 that approximates it; bounds were set here for any values at or beyond the usual limits of such assays
Conditions: source organism: Escherichia coli O157:H7 str. EDL933
quantity: pKd
Answers are plain numbers, as −log10 of the molar value.

# get_value(readout='pKd', item= RMMGVKYLM ) 5.68
